# Test system: Staphylococcus aureus
# assay_protocol: Antibacterial activity against methicillin resistant Staphylococcus aureus ATCC513045 assessed as reduction in microbial growth after 16 to 18 hrs by microbroth dilution method
# Format: functional
# assay_setup: time 16-18 hrs
For each of the compounds below, state its MIC.
One number for each entry, in µg/mL.

Give MIC for each of the items listed below.
1. CC(C)=CCc1c(OCCCF)cc(/C=C/c2ccc(C(F)(F)F)cc2)c(C(=O)O)c1O
2. CC(C)=CCc1c(OCCCCF)cc(/C=C/c2ccc(C(F)(F)F)cc2)c(C(=O)O)c1O
3. CC(C)=CCc1c(OCCC(F)(F)F)cc(/C=C/c2ccc(C(F)(F)F)cc2)c(C(=O)O)c1O
4. CC(C)=CCc1c(OCC(F)(F)F)cc(/C=C/c2ccc(F)cc2)c(C(=O)O)c1O
5. CC(C)=CCc1c(OC2CCCC2)cc(/C=C/c2ccc(C(F)(F)F)cc2)c(C(=O)O)c1O

1. 2
2. 4
3. 2
4. 4
5. 2
